compounds and their reported inhibition
target: Tyrosine-protein kinase BTK (Homo sapiens) (UniProt Q06187); settings: at 0.1 µM;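 further: values are averaged percent inhibition of BTK enzyme activity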
Sequence (Q06187 whole entry): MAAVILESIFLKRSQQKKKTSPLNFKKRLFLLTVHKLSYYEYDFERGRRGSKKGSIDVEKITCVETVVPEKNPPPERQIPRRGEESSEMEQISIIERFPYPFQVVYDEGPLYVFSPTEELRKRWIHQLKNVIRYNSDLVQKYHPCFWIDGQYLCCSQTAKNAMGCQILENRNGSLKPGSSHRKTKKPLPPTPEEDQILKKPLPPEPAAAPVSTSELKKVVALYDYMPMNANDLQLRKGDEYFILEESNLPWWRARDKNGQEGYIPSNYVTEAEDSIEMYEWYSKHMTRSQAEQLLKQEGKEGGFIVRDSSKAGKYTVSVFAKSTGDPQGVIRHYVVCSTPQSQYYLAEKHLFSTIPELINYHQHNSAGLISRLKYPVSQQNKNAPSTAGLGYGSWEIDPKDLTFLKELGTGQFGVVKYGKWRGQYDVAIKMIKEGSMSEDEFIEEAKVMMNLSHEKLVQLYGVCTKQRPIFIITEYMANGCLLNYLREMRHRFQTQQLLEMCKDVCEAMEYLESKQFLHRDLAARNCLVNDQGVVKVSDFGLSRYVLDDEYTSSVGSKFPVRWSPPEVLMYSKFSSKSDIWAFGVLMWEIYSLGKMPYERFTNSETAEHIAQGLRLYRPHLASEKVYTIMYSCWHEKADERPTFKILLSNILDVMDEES

{"SMILES STR": "O=C(NCC1CC1)c1ccc(-c2cccc(C(=O)NC3CC3)c2)cc1", "inhibition, %": 1.12}
{"SMILES STR": "COc1ccc2ncn(-c3cc(O[C@H](C)c4ccccc4Cl)c(C(N)=O)s3)c2c1", "inhibition, %": -4.3}
{"SMILES STR": "C[C@@H](Oc1cc(-n2cnc3ccc(OCC4CCN(C)CC4)cc32)sc1C(N)=O)c1ccccc1Cl", "inhibition, %": 0}
{"SMILES STR": "COc1ccc(-c2ccc3c(NC(=O)C4CC4)n[nH]c3n2)cc1", "inhibition, %": 0.22}
{"SMILES STR": "COc1cc2ncn(-c3cc(OCCc4ccccc4)c(C(N)=O)s3)c2cc1OC", "inhibition, %": 1.12}
{"SMILES STR": "O=C1NC(=O)C(c2cccc(Cl)c2)=C1Nc1ccc(Cl)c(C(=O)O)c1", "inhibition, %": -0.87}
{"SMILES STR": "O=C1Nc2ccccc2/C1=C/Nc1ccc(-n2cncn2)cc1", "inhibition, %": 0.25}
{"SMILES STR": "CCc1nccc2c1nc(-c1nonc1N)n2CC", "inhibition, %": -0.56}
{"SMILES STR": "O=C(Nc1n[nH]c2nc(-c3ccco3)ccc12)C1CC1", "inhibition, %": 0.36}
{"SMILES STR": "COc1cc(N2CCN(C(C)C)CC2)ccc1Nc1nc(Nc2ccc(F)cc2C(=O)NC[C@@H](O)CO)c2cc[nH]c2n1", "inhibition, %": -2.66}
{"SMILES STR": "CCc1ccc(Oc2nccc(-c3c(-c4ccc(F)cc4)ncn3C3CCNCC3)n2)cc1", "inhibition, %": -0.17}
{"SMILES STR": "COc1cc2ncn(-c3cc(OCc4cccs4)c(C(N)=O)s3)c2cc1OC", "inhibition, %": -2.66}
{"SMILES STR": "FC(F)(F)c1cccc(Nc2nccc(-c3cnn4nc(-c5ccccc5)ccc34)n2)c1", "inhibition, %": 0.03}
{"SMILES STR": "O=C(Nc1n[nH]c2cc(-c3ccccc3)ccc12)C1CC1", "inhibition, %": 1.13}
{"SMILES STR": "Cc1nnc(-c2ccc(C)c(-c3ccc(C(=O)NCc4ccc(Cl)cc4)cc3)c2)o1", "inhibition, %": -1.06}
{"SMILES STR": "CN(C)CCOc1ccc(-c2cc(-c3ccc4c(c3)CCC4=NO)c(-c3ccncc3)o2)cc1", "inhibition, %": 0.42}
{"SMILES STR": "O=C1Nc2ccc(I)cc2C1=Cc1cc(Br)c(O)c(Br)c1", "inhibition, %": -1.22}
{"SMILES STR": "c1ccc(-c2n[nH]cc2-c2ccnc(-c3ccc(OCCN4CCOCC4)cc3)c2)nc1", "inhibition, %": 0.21}
{"SMILES STR": "CN(C)CCCNc1nccc(-c2c(-c3ccc(F)cc3)nn3cc(C(F)(F)F)ccc23)n1", "inhibition, %": -3.09}
{"SMILES STR": "COc1cc(Nc2ncc3c(C)nc(-c4cccc(Oc5ccccc5)c4)n3n2)cc(OC)c1OC", "inhibition, %": 1.08}
{"SMILES STR": "COc1ccc(C2=C(N3CCc4ccccc43)C(=O)NC2=O)cc1", "inhibition, %": 1.91}
{"SMILES STR": "NC(=O)c1cc(-c2ccc(F)cc2)cc(-c2ccncc2)c1N", "inhibition, %": 0.21}
{"SMILES STR": "CCN(CC)Cc1ccc(Nc2nccc(-c3cnn4ncccc34)n2)cc1", "inhibition, %": -3.74}
{"SMILES STR": "NC(=O)Cc1ccccc1Oc1nccc(-c2c(-c3ccc(F)cc3)ncn2C2CCNCC2)n1", "inhibition, %": 1.29}
{"SMILES STR": "COc1cc2ncn(-c3cc(OCc4ccccc4C(F)(F)F)c(C(C)=O)s3)c2cc1OC", "inhibition, %": 1.17}
{"SMILES STR": "N#Cc1ccc(Oc2nccc(-c3c(-c4ccc(F)cc4)ncn3C3CCNCC3)n2)cc1", "inhibition, %": -1.09}
{"SMILES STR": "COc1cc(Nc2ncc3c(C)nc(-c4cccc(C(F)(F)F)c4)n3n2)cc(OC)c1OC", "inhibition, %": 2.11}
{"SMILES STR": "COc1cc(Nc2ncc(-c3ccccc3)o2)cc(OC)c1OC", "inhibition, %": -0.88}
{"SMILES STR": "Fc1ccc(-c2ncn(C3CCNCC3)c2-c2ccnc(Oc3ccc(Oc4ccccc4)cc3)n2)cc1", "inhibition, %": -2.01}
{"SMILES STR": "c1ccc(Oc2ccc(Nc3ncc(-c4ccccc4)o3)cc2)cc1", "inhibition, %": -0.86}
{"SMILES STR": "CCS(=O)(=O)c1ccc(OC)c(Nc2ncc(-c3cccc(-c4ccccc4F)c3)o2)c1", "inhibition, %": -0.93}
{"SMILES STR": "Clc1ccc(CNc2nccc(-c3cnn4ncccc34)n2)cc1", "inhibition, %": 0.65}
{"SMILES STR": "O=C(Nc1ccc(Oc2ccc3[nH]c(NC(=O)c4ccccc4)nc3c2)cc1)Nc1cc(C(F)(F)F)ccc1F", "inhibition, %": 0.7}
{"SMILES STR": "CN(c1ccc(NC(=O)Nc2c(Cl)cccc2Cl)cc1)c1ccnc(Nc2cccc(CS(C)(=O)=O)c2)n1", "inhibition, %": 18.8}
{"SMILES STR": "NS(=O)(=O)c1ccc(N/N=C2\\C(=O)Nc3ccc(C(=O)NCCCn4ccnc4)cc32)cc1", "inhibition, %": -1.04}
{"SMILES STR": "COc1cccc(-n2cnc3c(N/N=C/c4ccncc4)ncnc32)c1", "inhibition, %": -2.61}
{"SMILES STR": "Fc1ccc(-c2ncn(CCCN3CCOCC3)c2-c2ccncc2)cc1", "inhibition, %": -0.91}
{"SMILES STR": "CNC(=O)c1cncc(/C=C/c2c(C)cccc2C)c1", "inhibition, %": -1.07}
{"SMILES STR": "O=C(Nc1n[nH]c2cc(-c3cc(F)ccc3F)ccc12)C1CC1", "inhibition, %": -1.19}
{"SMILES STR": "COc1ccc2cc(-c3c(-c4ccncc4)nc(-c4ccc(S(C)(=O)=O)cc4C)n3C)ccc2c1", "inhibition, %": -2.49}
{"SMILES STR": "COc1cc(C)c(N(C)C(=O)CN(C)C)cc1Nc1nc(Nc2cccc(F)c2C(N)=O)c2cc[nH]c2n1", "inhibition, %": -1.73}
{"SMILES STR": "NC(=O)c1ccc(Oc2nccc(-c3c(-c4ccc(F)cc4)ncn3C3CCNCC3)n2)cc1", "inhibition, %": -0.49}
